The reported numbers originate from patent US20230312686A1.

- Assay System: T1, Recombinant murine glypican-3 (aa 25-557), R&D Systems (murine, UniProt Q8CFZ4 25-557)
- T1 construct: also called muGPC3; Mu GPC3-His
- T1 sequence (Q8CFZ4 25-557 limits assumed, form in doubt): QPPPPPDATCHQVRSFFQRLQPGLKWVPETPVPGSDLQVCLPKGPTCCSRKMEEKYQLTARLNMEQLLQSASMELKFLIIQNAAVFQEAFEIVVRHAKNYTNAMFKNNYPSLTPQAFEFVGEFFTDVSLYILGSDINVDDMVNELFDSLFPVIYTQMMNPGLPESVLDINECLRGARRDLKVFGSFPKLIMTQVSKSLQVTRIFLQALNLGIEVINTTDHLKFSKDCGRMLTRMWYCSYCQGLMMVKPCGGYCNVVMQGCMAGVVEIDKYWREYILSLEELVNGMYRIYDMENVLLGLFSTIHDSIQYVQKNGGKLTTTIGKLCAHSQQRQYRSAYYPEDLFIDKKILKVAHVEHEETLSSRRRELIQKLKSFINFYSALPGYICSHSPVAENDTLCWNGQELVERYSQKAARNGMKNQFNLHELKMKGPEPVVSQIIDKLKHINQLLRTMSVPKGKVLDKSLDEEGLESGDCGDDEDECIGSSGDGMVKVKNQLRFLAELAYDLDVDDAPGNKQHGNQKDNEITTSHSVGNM
- Test: SPR 1-point off-rate, alkylated mutant vs parent
// muGPC3 koff (mut/par) lookup, one value per entry
Report only the number, with the unit fold understood.

ADX_6077_F02 DG→DL mutant, alkylated (designed binder, C-terminal cysteine alkylated, also called P1-055671) GVSDVPRDLEVVAATPTSLLISWSDDYHAHRYYRITYGETGGNSPVQEFTVPGEHVTATISGLKPGVDYTITVYAVTYDLEKAATDWSISINYRTPC; 3.1
ADX_6077_F02 DG→GG mutant, alkylated (designed binder, C-terminal cysteine alkylated, also called P1-055670) GVSDVPRDLEVVAATPTSLLISWSDDYHAHRYYRITYGETGGNSPVQEFTVPGEHVTATISGLKPGVDYTITVYAVTYGGEKAATDWSISINYRTPC; 12
ADX_6077_F02 DG→DS mutant, alkylated (designed binder, C-terminal cysteine alkylated, also called P1-055667) GVSDVPRDLEVVAATPTSLLISWSDDYHAHRYYRITYGETGGNSPVQEFTVPGEHVTATISGLKPGVDYTITVYAVTYDSEKAATDWSISINYRTPC; 3.3

Inquiry: What value of muGPC3 koff (mut/par) has been recorded for this entry: ADX_6077_F02 DG→DV mutant, alkylated (designed binder, C-terminal cysteine alkylated, also called P1-055672) GVSDVPRDLEVVAATPTSLLISWSDDYHAHRYYRITYGETGGNSPVQEFTVPGEHVTATISGLKPGVDYTITVYAVTYDVEKAATDWSISINYRTPC
Reply text: 7
